Biological target: CpunPBP2 (Conogethes punctiferalis, UniProt A0A1D6X8W8)
Sequence (A0A1D6X8W8 entry or part of it): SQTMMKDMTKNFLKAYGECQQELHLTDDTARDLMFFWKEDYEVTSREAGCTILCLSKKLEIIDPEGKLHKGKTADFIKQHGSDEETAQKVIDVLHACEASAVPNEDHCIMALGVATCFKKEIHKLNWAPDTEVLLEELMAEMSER
Assay: Fluorescence displacement (competitive, 1-NPN) binding assay
Details: read-out: KD (μM), calculated dissociation constant; pH = 7.4; calculated from IC50: KD = [IC50]/(1+[1-NPN]/K1-NPN)
Could you mark each record fulfilled if its Kd falls strictly under 10 µM, and not fulfilled if it equals or exceeds it?

CC1=CCC2CC1C2(C)C (centres unmarked)
not fulfilled
CC(=O)/C=C/C1C(C)=CCCC1(C)C (centres unmarked)
fulfilled
CC/C=C\CCO [cis-3-hexen-1-ol]
not fulfilled
C=CC(C)(O)CCC=C(C)C (centres unmarked)
not fulfilled
CCCCCCCCCCCCCCO
fulfilled
C=C1CCC2CC1C2(C)C (centres unmarked)
not fulfilled
COc1cc(C=O)ccc1O
not fulfilled

====

Target: CpunPBP2 (Conogethes punctiferalis)
Test: Fluorescence displacement (competitive, 1-NPN) binding assay
Settings: pH = 7.4; 1-NPN 2 μM as fluorescent reporter; 2 μM protein; read-out: IC50
measure: log10 IC50 (log10 of the value in µM)

CCCCC/C=C/CCCCCCCCC=O [E10-16:Ald, (E)-10-hexadecenal]
-0.03
CCCCC/C=C\CCCCCCCCC=O [Z10-16:Ald, (Z)-10-hexadecenal]
-0.01
CCCCCCC=O
1.25
CCCCCCCCCCC=O
0.87
CCCCCCCCCCCCCCCC(=O)O
1.15
C=C(C)[C@H]1CC=C(C)CC1
1.08
CCCCCCCCC=O
1.17
CCC(C)CCCC(C)C (centres unmarked)
1.04
CCCCCC/C=C/C=O [Trans-2-nonenal]
1.35
C=C1CC/C=C(\C)CC[C@@H]2[C@@H]1CC2(C)C (relative stereo) [Trans-caryopyllene]
0.79
C=CC(=C)CC/C=C(\C)CCC=C(C)C
0.45
CCCCCCCCCC=O
1.12
CCCCC/C=C/C=O [Trans-2-octanal]
1.09
CCCCCCCCCCCCCCCC=O
0.26

====

Molecular target: CpunPBP2 (Conogethes punctiferalis, UniProt A0A1D6X8W8)
Experiment: Fluorescence displacement (competitive, 1-NPN) binding assay
Details: pH = 7.4; 1-NPN 2 μM as fluorescent reporter; 2 μM protein
pIC50: −log10 of the molar value.
measure: pIC50

COc1cc(C=O)ccc1O [Vanillin]
4.70
C=C1CCC2CC1C2(C)C (stereo not drawn) [β-pinene]
4.68
CC(=O)/C=C/C1C(C)=CCCC1(C)C (stereo not drawn) [α-ionone]
4.97
CC/C=C\CCO [cis-3-hexen-1-ol]
4.46
CC(=O)/C=C/C1=C(C)CCCC1(C)C [β-ionone]
4.76
C=CC(C)(O)CCC=C(C)C (centres unmarked) [Linalool]
4.66
CC1=CCC2CC1C2(C)C (stereo not drawn) [α-pinene]
4.55
CCCCCCCCCCCCCCO [1-tetrodecanol]
5.40

====

Reported Int (%) values are given for each entry in this list.
Target: CpunPBP2 (Conogethes punctiferalis, UniProt A0A1D6X8W8)
Experiment: Fluorescence displacement (competitive, 1-NPN) binding assay
Conditions: ratio of fluorescence intensity at the pheromone concentration of 6 mM to the initial fluorescence intensity; pH = 7.4
measure: Int (%)

C=C(C)[C@H]1CC=C(C)CC1 [Limonene]
82.86
C=C1CC/C=C(\C)CC[C@@H]2[C@@H]1CC2(C)C (relative stereo) [Trans-caryopyllene]
50.42
C=CC(=C)CC/C=C(\C)CCC=C(C)C [β-farnesene]
40.51
CCCCC/C=C/C=O [Trans-2-octanal]
62.32

====

Biological target: CpunPBP2 (Conogethes punctiferalis)
Assay: Fluorescence displacement (competitive, 1-NPN) binding assay
Conditions: pH 7.4, read-out: Int (%)
measure: activity at 6000 µM (%)

CCCCCCCCCCCCCCO
45.5
CC(=O)/C=C/C1=C(C)CCCC1(C)C
88
CC/C=C\CCO [cis-3-hexen-1-ol]
89.6
CC(=O)/C=C/C1C(C)=CCCC1(C)C (centres unmarked)
61.8
C=C1CCC2CC1C2(C)C (centres unmarked)
80.5

====

Biological target: CpunPBP5 (Conogethes punctiferalis, UniProt A0A0M4FIS7)
Sequence (A0A0M4FIS7 entry or part of it): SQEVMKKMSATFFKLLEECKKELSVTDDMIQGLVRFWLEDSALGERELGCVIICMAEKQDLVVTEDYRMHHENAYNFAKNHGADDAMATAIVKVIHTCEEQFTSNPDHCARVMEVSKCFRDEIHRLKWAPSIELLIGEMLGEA
Experiment: Fluorescence displacement (competitive, 1-NPN) binding assay
Details: pH = 7.4; calculated from IC50: KD = [IC50]/(1+[1-NPN]/K1-NPN); read-out: KD (μM), calculated dissociation constant
Class (required): determined from Kd; valid ranges are class 0 = under 4 µM, class 1 = from 4 µM up to 8 µM, class 2 = 8 µM and over

CCCCCCCCCCCCCCCC=O
class 0
CCCCC/C=C\CCCCCCCCC=O [Z10-16:Ald, (Z)-10-hexadecenal]
class 0
C=C1CC/C=C(\C)CC[C@@H]2[C@@H]1CC2(C)C (relative stereo) [Trans-caryopyllene]
class 0
CCC(C)CCCC(C)C (centres unmarked)
class 1
CCCCCCCCCCCCCCCC(=O)O
class 1
CCCCCCCCCC=O
class 2
CCCCCCCCC=O
class 2
CCCCC/C=C/CCCCCCCCC=O [E10-16:Ald, (E)-10-hexadecenal]
class 0
C=CC(=C)CC/C=C(\C)CCC=C(C)C
class 1
C=C(C)[C@H]1CC=C(C)CC1
class 2

====

Molecular target: CpunPBP5-m2 (CpunPBP5-Phe12 mutant) (Conogethes punctiferalis, UniProt A0A0M4FIS7, F37Y)
Sequence (A0A0M4FIS7 entry or part of it F37Y): as the sequence (A0A0M4FIS7 entry or part of it) above, with F12Y counted along it
Experiment: Fluorescence displacement binding assay of mutants
pIC50: −log10 of the molar value.
measure: pIC50

CCCCC/C=C\CCCCCCCCC=O [Z10-16:Ald, (Z)-10-hexadecenal]
5.78
CCCCC/C=C/CCCCCCCCC=O [E10-16:Ald, (E)-10-hexadecenal]
5.56

====

Target: CpunPBP2 (Conogethes punctiferalis)
Assay: Fluorescence displacement (competitive, 1-NPN) binding assay
Conditions: ranking among the 24 tested ligands
measure: binding affinity to CpunPBP2 (in words)

CCCCC/C=C\CCCCCCCCC=O [Z10-16:Ald, (Z)-10-hexadecenal]
highest binding ability
CCCCC/C=C/CCCCCCCCC=O [E10-16:Ald, (E)-10-hexadecenal]
highest binding ability

====

Reported IC50 values are given for each entry in this list.
Molecular target: CpunPBP5-m4 (CpunPBP5-Arg120 mutant) (Conogethes punctiferalis, UniProt A0A0M4FIS7, R145K)
Sequence (A0A0M4FIS7 entry or part of it R145K): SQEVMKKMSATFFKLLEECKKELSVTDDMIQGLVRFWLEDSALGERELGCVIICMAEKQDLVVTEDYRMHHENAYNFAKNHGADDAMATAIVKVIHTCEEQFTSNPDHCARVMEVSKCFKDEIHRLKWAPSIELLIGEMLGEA
Test: Fluorescence displacement binding assay of mutants
measure: IC50 (nM)

CCCCC/C=C/CCCCCCCCC=O [E10-16:Ald, (E)-10-hexadecenal]
2610
CCCCC/C=C\CCCCCCCCC=O [Z10-16:Ald, (Z)-10-hexadecenal]
2570

====

Target: CpunPBP2-m1 (CpunPBP2-Phe9 mutant) (Conogethes punctiferalis, UniProt A0A1D6X8W8, F33Y)
Sequence (A0A1D6X8W8 entry or part of it F33Y): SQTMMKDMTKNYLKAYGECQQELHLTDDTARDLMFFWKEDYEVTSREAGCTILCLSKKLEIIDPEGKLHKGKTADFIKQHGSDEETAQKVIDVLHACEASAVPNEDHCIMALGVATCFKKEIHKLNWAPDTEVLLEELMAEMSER
Assay: Fluorescence displacement binding assay of mutants
pIC50: −log10 of the molar value.
measure: pIC50

CCCCC/C=C\CCCCCCCCC=O [Z10-16:Ald, (Z)-10-hexadecenal]
6.12
CCCCC/C=C/CCCCCCCCC=O [E10-16:Ald, (E)-10-hexadecenal]
6.10

====

Reported pIC50 values are given for each entry in this list.
Molecular target: CpunPBP5-m3 (CpunPBP5-Val115 mutant) (Conogethes punctiferalis, UniProt A0A0M4FIS7, V140A)
Sequence (A0A0M4FIS7 entry or part of it V140A): as the sequence (A0A0M4FIS7 entry or part of it R145K) above, with V115A, K120R counted along it
Assay: Fluorescence displacement binding assay of mutants
pIC50: −log10 of the molar value.
measure: pIC50

CCCCC/C=C/CCCCCCCCC=O [E10-16:Ald, (E)-10-hexadecenal]
5.44
CCCCC/C=C\CCCCCCCCC=O [Z10-16:Ald, (Z)-10-hexadecenal]
5.79

====

Biological target: CpunPBP5-m2 (CpunPBP5-Phe12 mutant) (Conogethes punctiferalis, UniProt A0A0M4FIS7, F37Y)
Test: Fluorescence displacement binding assay of mutants
measure: Kd

CCCCC/C=C\CCCCCCCCC=O [Z10-16:Ald, (Z)-10-hexadecenal]
900 nM
CCCCC/C=C/CCCCCCCCC=O [E10-16:Ald, (E)-10-hexadecenal]
1490 nM

====

Molecular target: CpunPBP2-m2 (CpunPBP2-Phe33 mutant) (Conogethes punctiferalis, UniProt A0A1D6X8W8, F57Y)
Sequence (A0A1D6X8W8 entry or part of it F57Y): as the sequence (A0A1D6X8W8 entry or part of it) above, with F36Y counted along it
Assay: Fluorescence displacement binding assay of mutants
Conditions: read-out: KD, calculated dissociation constant
Reported Kd values are given for each entry in this list.
measure: Kd (nM)

CCCCC/C=C/CCCCCCCCC=O [E10-16:Ald, (E)-10-hexadecenal]
540
CCCCC/C=C\CCCCCCCCC=O [Z10-16:Ald, (Z)-10-hexadecenal]
360

====

Biological target: CpunPBP5 (Conogethes punctiferalis, UniProt A0A0M4FIS7)
Experiment: Fluorescence displacement (competitive, 1-NPN) binding assay
Conditions: ranking among the 24 tested ligands
Description: The fluorescence intensity was recorded on a FluoroMax-4 spectrophotometer (Horiba Scientific, USA) at room temperature using a 1 cm light path fluorimeter quartz cuvette. The fluorescent probe N-phenyl-1-naphthylamine (1-NPN) and all the tested chemicals were dissolved in HPLC purity methanol. The final concentration was prepared 1 mM. […] The fluorescence of 1-NPN was excited at 337 nm and emission spectra were recorded between 300 and 450 nm. […]
measure: binding affinity to CpunPBP5 (in words)

CCCCC/C=C\CCCCCCCCC=O [Z10-16:Ald, (Z)-10-hexadecenal]
highest binding ability
CCCCC/C=C/CCCCCCCCC=O [E10-16:Ald, (E)-10-hexadecenal]
highest binding ability
